- method: protein stability index of a GFP-peptide fusion (yeast GPS) (PSI 1-4); higher = more stable; sorted into four equal gates, so the index is relative within each strain
- conditionDescription: pdr5∆
Decide using protein stability index: a value greater than or equal to 3 is y, a smaller one is n.

Look over these answered cases.
[
  {
    "inputSequence": "PAAANLDALVDCENFFN [YJL039C/NUP192]",
    "assignedLabel": "n"
  },
  {
    "inputSequence": "FGYDIPLLDIVLKADRS [YML103C/NUP188]",
    "assignedLabel": "n"
  },
  {
    "inputSequence": "GKLVVSQEMVPRYFSEA [SIR3]",
    "assignedLabel": "y"
  },
  {
    "inputSequence": "TGNTTSKSAFSFGTANT [YOR098C/NUP1]",
    "assignedLabel": "n"
  },
  {
    "inputSequence": "GLLDLERVIVVTGFAEV [FAS2]",
    "assignedLabel": "n"
  },
  {
    "inputSequence": "QIQFTPLIKKIKYEPRF [SMC3]",
    "assignedLabel": "n"
  },
  {
    "inputSequence": "AIYNNPTRIRTKSSKEF [RRI2]",
    "assignedLabel": "n"
  },
  {
    "inputSequence": "IWDSQKFFIMIVKGNII [POP4]",
    "assignedLabel": "n"
  },
  {
    "inputSequence": "PQLISDKFSPEDGLGPL [ARP7]",
    "assignedLabel": "n"
  },
  {
    "inputSequence": "RTPDSISVNSSSFSLTF [POP1]",
    "assignedLabel": "n"
  }
]

Lookup: Say whether SFGSKPTGKEEGDGAKA [YJL041W/NSP1] shows protein stability index of 3 or more.
Found: y

Lookup: Kindly determine if protein stability index recorded for DRFIELISDQLLEFFEL [YML103C/NUP188] is above or exactly 3.
Found: n

###

// reported protein stability index per item
- method: protein stability index of a GFP-peptide fusion (yeast GPS) (PSI 1-4); higher = more stable; sorted into four equal gates, so the index is relative within each strain
- conditionDescription: san1∆

Lookup: Please report the recorded protein stability index for GWKPYYKLFIWLVVPTI [YML031W/NDC1] .
Found: 1.19

Lookup: Quick one: protein stability index for EVSALVRSLPKEEQPKQ [PRP8] ?
Found: 1.26

Lookup: Which value of protein stability index has been reported for LFQRQKLHEFYLLISKE [IRR1] in the records?
Found: 2.63

Lookup: Any idea what protein stability index was measured for TVQYVRFFWKRSTNKKS [UBP6] ?
Found: 1.2

Lookup: Sample ALLIEVFTALLRLFINE [ITC1] — what was its protein stability index?
Found: 1.42

Lookup: I would be grateful if you could share the reported protein stability index for SLQDRSSLVRRNSVKLL [YCS4] .
Found: 1.94

###

- method: protein stability index of a GFP-peptide fusion (yeast GPS) (PSI 1-4); higher = more stable; sorted into four equal gates, so the index is relative within each strain
- conditionDescription: san1∆
Assign 1.0 to entries whose protein stability index meets or exceeds 3; assign 0.0 to the rest.

# example entries with known answers
[
  {
    "inputSequence": "DDLALPYQHPPNIFPNL [ITC1]",
    "assignedLabel": 1.0
  },
  {
    "inputSequence": "SARSSVHESLVTQSNIL [SRB8]",
    "assignedLabel": 0.0
  },
  {
    "inputSequence": "YYVPYSKLMPVLKSSVY [RPC82]",
    "assignedLabel": 0.0
  },
  {
    "inputSequence": "ELHKKLVEAAKLLKIPK [YDL116W/NUP84]",
    "assignedLabel": 0.0
  },
  {
    "inputSequence": "TAAEKKERLTKEAAAVA [RPL8A]",
    "assignedLabel": 1.0
  }
]

Lookup: Given the entry RMFEKNVMLNIYPRTVI [SKI6] , answer whether its protein stability index meets or surpasses 3.
Found: 0.0
